- TEST SYSTEM: T1, human TF ECD-His (hTF-his) (human, UniProt P13726 33-251)
- T1 construct: also called bio-hTF-his; human TF-His protein
- MEASUREMENT DESCRIPTION: SPR Biacore T200, antibody on Protein A chip, TF-His as analyte, 1:1 model
QUANTITY NAME: Kd (nM)
The reply should be a number in nM, with the unit left off.

Worked set:
hu67-15 (antibody, human IgG1, kappa, V domains shown) VH: EVQLQESGPGLVKPSQTLSLTCTVSGFSLTNYGVNWIRQPPGKGLEWIGVIWSRGNTDYNAAFISRVTISKDTSKNQVSLKLSSVTAADTAVYYCARKDAVVATDALDYWGQGTTVTVSS VL: DIQMTQSHKFLSASVGDRVTITCKASQDVSTAVAWYQQKPGKSPKLLIYSTSYRYTGVPSRFSGSGSGTDFTFTISSLQPEDIATYYCQQHYSTPYTFGGGTKVEIKR
19.1
hu67-1 (antibody, human IgG1, kappa, V domains shown) VH: EVTLKQSGPVLVKPTQTLTLTCTVSGFSLTNYGVNWIRQPPRKALEWLAVIWSRGNTDYNAAFISRLTISKDTSKSQVVLKMTNMDPVDTATYYCARKDAVVATDALDYWGQGTTVTVSS VL: DIVMTQSPKSLAVSLGERATINCKASQDVSTAVAWYQQKPGQPPKLLIYSTSYRYTGVPDRFSGSGSGTDFTLTISSLQAEDVAVYYCQQHYSTPYTFGGGTKVEIKR
13.6

--- query ---
[Q] Quick one: Kd of hu67-13 (antibody, human IgG1, kappa, V domains shown) VH: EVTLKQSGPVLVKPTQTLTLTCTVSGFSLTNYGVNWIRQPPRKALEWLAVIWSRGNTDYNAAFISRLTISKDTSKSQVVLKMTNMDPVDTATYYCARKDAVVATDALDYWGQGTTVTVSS VL: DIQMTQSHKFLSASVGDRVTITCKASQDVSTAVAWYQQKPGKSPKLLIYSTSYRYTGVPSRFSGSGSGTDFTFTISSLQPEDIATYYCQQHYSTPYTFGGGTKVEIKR ?
[A] 19
